Target desc: human μ-opiate receptor (Homo sapiens)
Construct: purchased PerkinElmer Life Sciences, Zaventem, Belgium RB-HOM; host or cells: CHO-K1 cells (recombinant expression; membrane preparation)
Test name: Affinity for the human μ-opiate receptor ([3H]-naloxone displacement, SPA)
Assay conditions: Table 2, Examples 11-161; test substance 1 μmole/l; inhibition of specific [3H]-naloxone binding; CHO-K1 membranes; read-out: μ-Opioid receptor, % inhibition [1 μM]

[
  {
    "Compound": "COC(=O)C1(CSC)N=CN(C2CCCCC2)C1CC1CCC(C(c2ccc(Cl)cc2)N(C)C)CC1 (stereo not drawn)",
    "Reading unit": "%",
    "inhibition at 1 µM": 91
  },
  {
    "Compound": "COC(=O)C1(CC(C)C)N=CN(Cc2ccccc2)C1C1CCC(C(c2cccc(F)c2)N(C)C)CC1 (stereo not drawn)",
    "Reading unit": "%",
    "inhibition at 1 µM": 92
  },
  {
    "Compound": "CCCN1C=NC(C)(C(=O)OC)C1CC1CCC(C(c2cccc(F)c2)N(C)C)CC1 (stereo not drawn)",
    "Reading unit": "%",
    "inhibition at 1 µM": 88
  }
]

* * *

Target desc: human μ-opiate receptor (Homo sapiens, UniProt P35372)
Construct: purchased PerkinElmer Life Sciences, Zaventem, Belgium RB-HOM; host or cells: CHO-K1 cells (recombinant expression; membrane preparation)
Sequence (P35372 whole entry): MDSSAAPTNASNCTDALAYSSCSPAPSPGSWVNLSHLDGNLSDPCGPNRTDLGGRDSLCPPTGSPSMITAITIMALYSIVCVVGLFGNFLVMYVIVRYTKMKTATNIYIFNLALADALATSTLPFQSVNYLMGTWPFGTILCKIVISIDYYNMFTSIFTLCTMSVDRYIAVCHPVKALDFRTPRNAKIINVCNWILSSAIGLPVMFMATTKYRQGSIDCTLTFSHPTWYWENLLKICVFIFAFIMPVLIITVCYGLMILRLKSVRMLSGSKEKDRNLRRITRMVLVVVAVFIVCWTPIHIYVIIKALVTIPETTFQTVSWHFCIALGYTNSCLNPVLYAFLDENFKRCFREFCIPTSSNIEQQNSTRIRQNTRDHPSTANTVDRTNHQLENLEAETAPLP
Test name: Affinity for the human μ-opiate receptor ([3H]-naloxone displacement, SPA)
Assay conditions: Table 2, Examples 11-161; test substance 1 μmole/l; inhibition of specific [3H]-naloxone binding; CHO-K1 membranes; read-out: μ-Opioid receptor, % inhibition [1 μM]
A collection of compounds and their measured inhibition at 1 µM

[
  {
    "Compound": "CCCCN1C=NC(Cc2ccc(Cl)cc2)(C(=O)OC)C1C1CCC(C(c2cccc(F)c2)N(C)C)CC1 (centres unmarked) [Example 30]",
    "Target desc": "human μ-opiate receptor (Homo sapiens, UniProt P35372)",
    "inhibition at 1 µM, %": 89
  },
  {
    "Compound": "COC(=O)C1(CSCc2ccccc2)N=CN(C2CCCCC2)C1CC1CCC(C(CCc2ccccc2)N(C)C)CC1 (centres unmarked) [Example 156]",
    "Target desc": "human μ-opiate receptor (Homo sapiens, UniProt P35372)",
    "inhibition at 1 µM, %": 92
  },
  {
    "Compound": "CCCCN1C=NC(C(=O)OC)(C(C)CC)C1CC1CCC(C(c2cccc(F)c2)N(C)C)CC1 (centres unmarked) [Example 73]",
    "Target desc": "human μ-opiate receptor (Homo sapiens, UniProt P35372)",
    "inhibition at 1 µM, %": 92
  },
  {
    "Compound": "CCCCN1C=NC(CSCc2ccccc2)(C(=O)OC)C1C1CCC(C(c2cccc(F)c2)N(C)C)CC1 (centres unmarked) [Example 67]",
    "Target desc": "human μ-opiate receptor (Homo sapiens, UniProt P35372)",
    "inhibition at 1 µM, %": 88
  },
  {
    "Compound": "CCCC1(C(=O)OC)N=CN(C2CCCCC2)C1CC1CCC(C(c2cccc(F)c2)N(C)C)CC1 (centres unmarked) [Example 102]",
    "Target desc": "human μ-opiate receptor (Homo sapiens, UniProt P35372)",
    "inhibition at 1 µM, %": 91
  },
  {
    "Compound": "COC(=O)C1(Cc2ccc(Cl)cc2)N=CN(Cc2ccccc2)C1CC1CCC(C(c2ccc(Cl)cc2)N(C)C)CC1 (centres unmarked) [Example 113]",
    "Target desc": "human μ-opiate receptor (Homo sapiens, UniProt P35372)",
    "inhibition at 1 µM, %": 92
  },
  {
    "Compound": "CCCCN1C=NC(CCC(=O)OC)(C(=O)OC)C1C1CCC(C(c2ccc(Cl)cc2)N(C)C)CC1 (centres unmarked) [Example 68]",
    "Target desc": "human μ-opiate receptor (Homo sapiens, UniProt P35372)",
    "inhibition at 1 µM, %": 90
  },
  {
    "Compound": "COC(=O)CCC1(C(=O)OC)N=CN(CCc2ccccc2)C1CC1CCC(C(c2cccc(F)c2)N(C)C)CC1 (centres unmarked) [Example 80]",
    "Target desc": "human μ-opiate receptor (Homo sapiens, UniProt P35372)",
    "inhibition at 1 µM, %": 90
  },
  {
    "Compound": "CCCN1C=NC(CSCc2ccccc2)(C(=O)OC)C1CC1CCC(C(c2ccc(Cl)cc2)N(C)C)CC1 (centres unmarked) [Example 64]",
    "Target desc": "human μ-opiate receptor (Homo sapiens, UniProt P35372)",
    "inhibition at 1 µM, %": 98
  },
  {
    "Compound": "COC(=O)C1(C)N=CN(C2CCCCC2)C1CC1CCC(C(c2cccc(F)c2)N(C)C)CC1 (centres unmarked) [Example 104]",
    "Target desc": "human μ-opiate receptor (Homo sapiens, UniProt P35372)",
    "inhibition at 1 µM, %": 93
  },
  {
    "Compound": "CCCCN1C=NC(Cc2ccc(Cl)cc2)(C(=O)OC)C1CC1CCC(C(c2ccc(Cl)cc2)N(C)C)CC1 (centres unmarked) [Example 35]",
    "Target desc": "human μ-opiate receptor (Homo sapiens, UniProt P35372)",
    "inhibition at 1 µM, %": 92
  },
  {
    "Compound": "CCCCN1C=NC(CC(C)C)(C(=O)OC)C1C1CCC(C(c2cccc(F)c2)N(C)C)CC1 (centres unmarked) [Example 29]",
    "Target desc": "human μ-opiate receptor (Homo sapiens, UniProt P35372)",
    "inhibition at 1 µM, %": 89
  },
  {
    "Compound": "CCCCC1(C(=O)OC)N=CN(CCC)C1CC1CCC(C(c2ccc(Cl)cc2)N(C)C)CC1 (centres unmarked) [Example 28]",
    "Target desc": "human μ-opiate receptor (Homo sapiens, UniProt P35372)",
    "inhibition at 1 µM, %": 97
  },
  {
    "Compound": "CCCN1C=NC(CCC(=O)OC)(C(=O)OC)C1CC1CCC(C(c2ccc(F)cc2)N(C)C)CC1 (centres unmarked) [Example 159]",
    "Target desc": "human μ-opiate receptor (Homo sapiens, UniProt P35372)",
    "inhibition at 1 µM, %": 79
  },
  {
    "Compound": "CCCC1(C(=O)OC)N=CN(Cc2ccccc2)C1CC1CCC(C(CCc2ccccc2)N(C)C)CC1 (centres unmarked) [Example 144]",
    "Target desc": "human μ-opiate receptor (Homo sapiens, UniProt P35372)",
    "inhibition at 1 µM, %": 90
  },
  {
    "Compound": "COC(=O)C1(CC(C)C)N=CN(C2CCCCC2)C1CC1CCC(C(c2ccc(Cl)cc2)N(C)C)CC1 (centres unmarked) [Example 17]",
    "Target desc": "human μ-opiate receptor (Homo sapiens, UniProt P35372)",
    "inhibition at 1 µM, %": 96
  },
  {
    "Compound": "CCCCN1C=NC(CSC)(C(=O)OC)C1C1CCC(C(c2cccc(F)c2)N(C)C)CC1 (centres unmarked) [Example 66]",
    "Target desc": "human μ-opiate receptor (Homo sapiens, UniProt P35372)",
    "inhibition at 1 µM, %": 89
  }
]

* * *

Target desc: human μ-opiate receptor (Homo sapiens, UniProt P35372)
Construct: purchased PerkinElmer Life Sciences, Zaventem, Belgium RB-HOM; host or cells: CHO-K1 cells (recombinant expression; membrane preparation)
Test name: Affinity for the human μ-opiate receptor ([3H]-naloxone displacement, SPA)
Assay conditions: Table 2, Examples 11-161; test substance 1 μmole/l; inhibition of specific [3H]-naloxone binding; CHO-K1 membranes; read-out: μ-Opioid receptor, % inhibition [1 μM]

[
  {
    "Compound": "CCCN1C=NC(Cc2ccc(Cl)cc2)(C(=O)OC)C1C1CCC(C(c2cccc(F)c2)N(C)C)CC1 (stereo not shown)",
    "inhibition at 1 µM, %": 88
  },
  {
    "Compound": "COC(=O)C1(Cc2ccc(Cl)cc2)N=CN(CCc2ccccc2)C1CC1CCC(C(c2ccc(Cl)cc2)N(C)C)CC1 (stereo not shown)",
    "inhibition at 1 µM, %": 91
  },
  {
    "Compound": "CCCN1C=NC(CC(C)C)(C(=O)OC)C1CC1CCC(C(c2ccc(Cl)cc2)N(C)C)CC1 (stereo not shown)",
    "inhibition at 1 µM, %": 96
  },
  {
    "Compound": "COC(=O)C1(C)N=CN(Cc2ccccc2)C1CC1CCC(C(CCc2ccccc2)N(C)C)CC1 (stereo not shown)",
    "inhibition at 1 µM, %": 79
  },
  {
    "Compound": "COC(=O)C1(CC(C)C)N=CN(C2CCCCC2)C1C1CCC(C(c2ccc(Cl)cc2)N(C)C)CC1 (stereo not shown)",
    "inhibition at 1 µM, %": 92
  },
  {
    "Compound": "CCCN1C=NC(CCC(=O)OC)(C(=O)OC)C1C1CCC(C(c2ccc(Cl)cc2)N(C)C)CC1 (stereo not shown)",
    "inhibition at 1 µM, %": 84
  },
  {
    "Compound": "CCCCC1(C(=O)OC)N=CN(C2CCCCC2)C1C1CCC(C(c2cccc(F)c2)N(C)C)CC1 (stereo not shown)",
    "inhibition at 1 µM, %": 94
  },
  {
    "Compound": "COC(=O)CCC1(C(=O)OC)N=CN(Cc2ccccc2)C1CC1CCC(C(c2ccc(Cl)cc2)N(C)C)CC1 (stereo not shown)",
    "inhibition at 1 µM, %": 100
  },
  {
    "Compound": "CCCN1C=NC(CSCc2ccccc2)(C(=O)OC)C1C1CCC(C(c2ccc(Cl)cc2)N(C)C)CC1 (stereo not shown)",
    "inhibition at 1 µM, %": 95
  },
  {
    "Compound": "CCCCN1C=NC(CC(C)C)(C(=O)OC)C1CC1CCC(C(c2ccc(Cl)cc2)N(C)C)CC1 (stereo not shown)",
    "inhibition at 1 µM, %": 98
  }
]
